experiment: Cytotoxicity against GR knockout human A549 cells harboring Neo-Luc assessed as cell viability at 30 uM by Cell-Titer Glo assay (reference value: 100%); format: cell-based; details: read-out: Activity
Each entry below carries its recorded viability at 30 µM.

// worked examples, viability at 30 µM included
C/C=C(/C)C(=O)O[C@@H]1C[C@@](O)(C(C)C)[C@@H]2CCC(C)=C[C@@H](O)[C@]21C; > 97%
C/C=C(/C)C(=O)O[C@@H]1C[C@@](O)(C(C)C)[C@@H]2CCC(C)=C[C@@H](OC(C)=O)[C@]21C; > 95%

Alright, here's another molecule for you.
Form field viability at 30 µM, entry C/C=C(/C)C(=O)O[C@@H]1C=C(C)CC[C@]2(O)[C@@H](C(C)C)CC(=O)[C@]12C : > 97%

---

assay: Cytotoxicity against TNFalpha stimulated human A549 cells harboring NFkB-Luc assessed as cell viability at 30 uM preincubated for 1 hr followed by TNFalpha stimulation measured after 5 hrs by Cell-Titer Glo assay (reference value: 100%); type: cell-based; conditions: read-out: Activity
measurement label: viability at 5 h, 30 µM

C/C=C(/C)C(=O)O[C@@H]1C=C(C)CC[C@]2(O)[C@@H](C(C)C)CC(=O)[C@]12C; > 97%
C/C=C(/C)C(=O)O[C@@H]1C[C@@](O)(C(C)C)[C@@H]2CCC(C)=C[C@@H](O)[C@]21C; > 97%

Alright, here's another molecule for you.
Form field viability at 5 h, 30 µM, entry C/C=C(/C)C(=O)O[C@@H]1C[C@@](O)(C(C)C)[C@@H]2CCC(C)=C[C@@H](OC(C)=O)[C@]21C : > 95%

---

target: Glucocorticoid receptor (Homo sapiens); test: Modulation of glucocorticoid receptor in human A549 cells assessed as 0.1 uM dexamethasone-induced GRE-driven promoter activity at 10 uM by luciferase reporter gene assay (reference value: 100%); type: cell-based
Each entry below carries its recorded Activity.

C/C=C(/C)C(=O)O[C@H]1C[C@@](C)(O)C(=O)[C@@H](OC(=O)/C(C)=C\C)[C@@]2(C)CC[C@@](O)(C(C)C)[C@H]12; > 90%

Alright, here's another compound for you.
Form field Activity, entry C/C=C(/C)C(=O)O[C@@H]1C[C@@](O)(C(C)C)[C@@H]2CCC(C)=C[C@@H](OC(C)=O)[C@]21C : 78%

---

Each entry below carries its recorded Activity.
Molecular target: Glucocorticoid receptor (Homo sapiens)
Sequence (whole entry): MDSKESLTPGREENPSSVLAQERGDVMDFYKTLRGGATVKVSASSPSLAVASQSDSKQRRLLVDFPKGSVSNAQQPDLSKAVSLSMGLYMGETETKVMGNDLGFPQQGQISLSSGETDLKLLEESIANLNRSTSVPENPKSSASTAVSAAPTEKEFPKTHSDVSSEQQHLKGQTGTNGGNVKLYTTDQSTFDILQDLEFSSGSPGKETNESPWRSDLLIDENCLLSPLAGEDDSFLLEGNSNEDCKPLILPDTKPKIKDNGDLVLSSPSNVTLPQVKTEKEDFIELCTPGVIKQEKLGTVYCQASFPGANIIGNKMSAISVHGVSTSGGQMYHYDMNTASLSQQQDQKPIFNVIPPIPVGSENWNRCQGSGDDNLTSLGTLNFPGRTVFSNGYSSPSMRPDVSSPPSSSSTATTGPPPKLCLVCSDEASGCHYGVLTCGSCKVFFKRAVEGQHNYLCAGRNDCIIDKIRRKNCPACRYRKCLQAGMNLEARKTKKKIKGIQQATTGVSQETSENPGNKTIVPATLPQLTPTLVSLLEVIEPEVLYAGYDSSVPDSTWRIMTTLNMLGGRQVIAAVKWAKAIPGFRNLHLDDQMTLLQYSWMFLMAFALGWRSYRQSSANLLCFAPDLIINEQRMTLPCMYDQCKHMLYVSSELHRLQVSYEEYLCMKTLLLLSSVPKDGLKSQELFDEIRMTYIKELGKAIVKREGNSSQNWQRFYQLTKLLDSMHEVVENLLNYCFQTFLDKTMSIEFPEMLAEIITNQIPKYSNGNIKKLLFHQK
Assay: Modulation of glucocorticoid receptor in human A549 cells assessed as 0.1 uM dexamethasone-induced GRE-driven promoter activity at 30 uM by luciferase reporter gene assay (reference value: 100%)
Format: cell-based
Field format: number, assumed %, no unit text.

C/C=C(/C)C(=O)O[C@@H]1C[C@@](O)(C(C)C)[C@@H]2CC=C(C)C(=O)[C@@H](O)[C@]21C; 71.6

Form field Activity, entry C/C=C(/C)C(=O)O[C@@H]1C=C(C)CC[C@]2(O)[C@@H](C(C)C)CC(=O)[C@]12C : 74.5

Form field Activity, entry C/C=C(/C)C(=O)O[C@@H]1C[C@@](O)(C(C)C)[C@@H]2CCC(C)=C[C@@H](OC(C)=O)[C@]21C : 67.1

Form field Activity, entry C/C=C(/C)C(=O)O[C@@H]1C[C@@](O)(C(C)C)[C@@H]2CCC(C)=C[C@@H](O)[C@]21C : 80.9

---

assay: Cytotoxicity against PMA stimulated human A549 cells harboring AP-1-Luc assessed as cell viability at 60 uM preincubated for 1 hr followed by PMA stimulation measured after 5 hrs by Cell-Titer Glo assay (reference value: 100%); assay type: cell-based; settings: read-out: Activity
measurement label: viability at 5 h, 60 µM (%)
Field format: number, assumed %, no unit text.

Form field viability at 5 h, 60 µM, entry C/C=C(/C)C(=O)O[C@@H]1C[C@@](O)(C(C)C)[C@@H]2CCC(C)=C[C@@H](OC(C)=O)[C@]21C : 93.4

---

target: Glucocorticoid receptor (Homo sapiens) (UniProt P04150); assay: Modulation of glucocorticoid receptor in human A549 cells assessed as 0.01 uM dexamethasone-induced GRE-driven promoter activity at 30 uM by luciferase reporter gene assay (reference value: 100%); type: cell-based
measurement label: Activity (%)
Field format: number, assumed %, no unit text.

// worked examples, Activity included
C/C=C(/C)C(=O)O[C@@H]1C[C@@](O)(C(C)C)[C@@H]2CCC(C)=C[C@@H](O)[C@]21C; 77
C/C=C(/C)C(=O)O[C@@H]1C[C@@](O)(C(C)C)[C@@H]2CC=C(C)C(=O)[C@@H](O)[C@]21C; 52.8
C/C=C(/C)C(=O)O[C@@H]1C=C(C)CC[C@]2(O)[C@@H](C(C)C)CC(=O)[C@]12C; 80.4
C/C=C(/C)C(=O)O[C@@H]1C[C@@](O)(C(C)C)[C@@H]2CCC(C)=C[C@@H](OC(C)=O)[C@]21C; 48.9

Form field Activity, entry C/C=C(/C)C(=O)O[C@H]1C[C@@](C)(O)C(=O)[C@@H](OC(=O)/C(C)=C\C)[C@@]2(C)CC[C@@](O)(C(C)C)[C@H]12 : 83.5

---

experiment: Cytotoxicity against TNFalpha stimulated human A549 cells harboring NFkB-Luc assessed as cell viability at 60 uM preincubated for 1 hr followed by TNFalpha stimulation measured after 5 hrs by Cell-Titer Glo assay (reference value: 100%); assay type: cell-based; conditions: read-out: Activity
measurement label: viability at 5 h, 60 µM (%)
Field format: number, assumed %, no unit text.

Form field viability at 5 h, 60 µM, entry C/C=C(/C)C(=O)O[C@@H]1C[C@@](O)(C(C)C)[C@@H]2CCC(C)=C[C@@H](OC(C)=O)[C@]21C : 97.3

---

target: Glucocorticoid receptor (Homo sapiens) (UniProt P04150); test: Modulation of glucocorticoid receptor in human A549 cells assessed as 0.01 uM dexamethasone-induced GRE-driven promoter activity at 10 uM by luciferase reporter gene assay (reference value: 100%); assay type: cell-based
Each entry below carries its recorded Activity.

C/C=C(/C)C(=O)O[C@@H]1C[C@@](O)(C(C)C)[C@@H]2CC=C(C)C(=O)[C@@H](O)[C@]21C; > 90%

Form field Activity, entry C/C=C(/C)C(=O)O[C@@H]1C[C@@](O)(C(C)C)[C@@H]2CCC(C)=C[C@@H](O)[C@]21C : > 90%

Form field Activity, entry C/C=C(/C)C(=O)O[C@H]1C[C@@](C)(O)C(=O)[C@@H](OC(=O)/C(C)=C\C)[C@@]2(C)CC[C@@](O)(C(C)C)[C@H]12 : > 90%

Form field Activity, entry C/C=C(/C)C(=O)O[C@@H]1C[C@@](O)(C(C)C)[C@@H]2CCC(C)=C[C@@H](OC(C)=O)[C@]21C : 70.1%

Form field Activity, entry C/C=C(/C)C(=O)O[C@@H]1C=C(C)CC[C@]2(O)[C@@H](C(C)C)CC(=O)[C@]12C : > 90%

---

molecular target: Glucocorticoid receptor (Homo sapiens); experiment: Modulation of glucocorticoid receptor in human A549 cells assessed as 0.1 uM dexamethasone-induced GRE-driven promoter activity at 10 uM by luciferase reporter gene assay (reference value: 100%); assay type: cell-based
Each entry below carries its recorded Activity.

C/C=C(/C)C(=O)O[C@@H]1C[C@@](O)(C(C)C)[C@@H]2CCC(C)=C[C@@H](O)[C@]21C; > 90%
C/C=C(/C)C(=O)O[C@@H]1C=C(C)CC[C@]2(O)[C@@H](C(C)C)CC(=O)[C@]12C; > 90%

Alright, here's another compound for you.
Form field Activity, entry C/C=C(/C)C(=O)O[C@@H]1C[C@@](O)(C(C)C)[C@@H]2CC=C(C)C(=O)[C@@H](O)[C@]21C : > 90%
